All values here come from the supplement of paper PMC10567573.

B1: BCL2L13 (parent)
chain: MASSSTVPLGFHYETKYVVLSYLG

Variants of: B1
Experiment: protein stability index of a GFP-peptide fusion (GPS, HEK-293T) (PSI 1-6); higher = more stable;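 also: lentivirally expressed fusions sorted by FACS into six bins by GFP to DsRed ratio, PSI derived from sequencing read proportions per bin multiplied by bin number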
Conditions: c terminus: a fixed tail appended
Measured Property: protein stability index
Returns: the value as a bare number; no unit string appended.

These recorded examples may help you get a feel for the data.
>>> df
   sequence_variant  quantitative_result
0               P8H                 2.22
1               S5P                 2.24
2              G24V                 3.35
3               A2C                 3.03
4              L20Q                 2.19

Please find the next variant below.
[Q] If you can, please state the reported protein stability index value of H12W .
[A] 2.66
